The following sequences are listed with their measured self-splicing fitness (ln) values.
test: self-splicing fitness, log relative to wild type (ln ratio); higher = more splicing; Tetrahymena group I intron in knt gene, E. coli kanamycin selection, DiMSum; sequences stand for … in CUCUCU…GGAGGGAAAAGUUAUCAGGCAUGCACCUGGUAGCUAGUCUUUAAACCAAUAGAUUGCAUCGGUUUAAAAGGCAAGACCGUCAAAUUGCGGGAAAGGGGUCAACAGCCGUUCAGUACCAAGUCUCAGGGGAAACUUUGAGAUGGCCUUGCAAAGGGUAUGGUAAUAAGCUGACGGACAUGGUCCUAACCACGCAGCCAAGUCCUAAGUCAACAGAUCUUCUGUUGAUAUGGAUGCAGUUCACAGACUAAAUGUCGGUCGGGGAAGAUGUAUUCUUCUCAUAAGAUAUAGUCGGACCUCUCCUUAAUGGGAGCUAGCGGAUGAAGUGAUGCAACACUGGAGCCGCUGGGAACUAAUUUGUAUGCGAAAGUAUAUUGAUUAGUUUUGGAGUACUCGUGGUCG; conditions: 37 °C;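 also: selection with 25 µg/mL kanamycin versus none on LB agar overnight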
// no unit string in output, number only

Record excerpt, results attached:
biopolymer-sequence: UAGAAGCAAUAUUACGCAAC
assay-endpoint: self-splicing fitness (ln)
result-value: -2.33
--
biopolymer-sequence: ACCGAGCAAUAUUACGAGGC
assay-endpoint: self-splicing fitness (ln)
result-value: -3.23
--
biopolymer-sequence: CAGCAGCAAUAUUACGCCAC
assay-endpoint: self-splicing fitness (ln)
result-value: -3.31
--
biopolymer-sequence: GGGAAGCAAUAUUACGGAGG
assay-endpoint: self-splicing fitness (ln)
result-value: -1.99
--
biopolymer-sequence: CUCGAGCAAUAUUACGUACC
assay-endpoint: self-splicing fitness (ln)
result-value: -0.911

For GCUCAGCAAUAUUACGAAUA the sequence record lists self-splicing fitness (ln) as -0.439

The recorded self-splicing fitness (ln) for GGUCAGCAAUAUUACGCAUC is -0.125

Quick note, self-splicing fitness (ln) for AGCGAGCAAUAUUACGUAUG landed at -3.3

# self-splicing fitness (ln) of ACCUAGCAAUAUUACGAGGG = -1.4

For GCGAAGCAAUAUUACGUACU the sequence record lists self-splicing fitness (ln) as 0.194

The measured self-splicing fitness (ln) associated with AACCAGCAAUAUUACGCCAG reads -1.72

Value of measured self-splicing fitness (ln) for the entry UCCAAGCAAUAUUACGGACU : -2.28

Hey, just so you know, these numbers are from the supplement of paper PMC7877785.
